# Subject of test: MMP-2 (Homo sapiens)
# Construct: purchased Abchem (so in the source)
# Sequence (P08253 110-660): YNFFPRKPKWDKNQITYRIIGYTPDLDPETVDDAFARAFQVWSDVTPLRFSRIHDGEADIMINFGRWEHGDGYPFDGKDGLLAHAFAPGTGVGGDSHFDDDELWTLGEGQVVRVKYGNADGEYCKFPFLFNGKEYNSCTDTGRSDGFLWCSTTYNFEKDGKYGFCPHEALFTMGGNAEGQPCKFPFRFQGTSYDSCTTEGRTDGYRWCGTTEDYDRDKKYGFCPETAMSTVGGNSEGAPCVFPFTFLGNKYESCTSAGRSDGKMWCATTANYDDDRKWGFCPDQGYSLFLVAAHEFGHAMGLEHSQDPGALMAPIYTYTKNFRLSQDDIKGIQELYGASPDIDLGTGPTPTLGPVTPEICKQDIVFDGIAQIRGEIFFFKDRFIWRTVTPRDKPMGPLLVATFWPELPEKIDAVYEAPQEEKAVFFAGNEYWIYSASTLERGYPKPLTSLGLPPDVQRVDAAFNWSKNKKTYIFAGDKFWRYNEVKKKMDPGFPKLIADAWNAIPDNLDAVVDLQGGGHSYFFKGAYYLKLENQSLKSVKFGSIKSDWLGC
# Assay details: MMP2 Inhibitor Screening Assay Kit (ab139446), colorimetric thiopeptide substrate, OD412
# Format: biochemical
# Condition label: remaining enzyme activity, untreated group = 100%; compound at 50 nM; n=2
Value kind: remaining activity at 0.05 µM (%)
Give a bare numeral; the unit % is implied.

Lab note: measured remaining activity at 0.05 µM of CC(=O)Nc1ccc(S(=O)(=O)N2CCCC2C(=O)NO)cc1 (stereo not shown) was 100

Kindly note the recorded remaining activity at 0.05 µM for CC(C)(C)c1ccc(S(=O)(=O)NC(Cc2ccccc2)C(=O)NO)cc1 (stereo not shown) , which is 100

Record O=C(NO)C1CCCCN1S(=O)(=O)c1ccc(C23CC4CC(CC(C4)C2)C3)cc1 (stereo not shown) , field remaining activity at 0.05 µM: 100

remaining activity at 0.05 µM in this record for CCCCOc1ccc(S(=O)(=O)N2CCCC2C(=O)NO)cc1 (stereo not shown) : 18.9

Sample O=C(NO)C1CCCCN1S(=O)(=O)c1ccc(F)cc1 (stereo not shown) ; remaining activity at 0.05 µM observed: 81.1

Briefly, remaining activity at 0.05 µM measured for O=C(NO)C1CCCCN1S(=O)(=O)c1ccccc1 (stereo not shown) : 81.6

The recorded remaining activity at 0.05 µM for entry Cc1cc(C)c(S(=O)(=O)NC(CC(C)C)C(=O)NO)c(C)c1 (stereo not shown) equals 100

The reported remaining activity at 0.05 µM of the molecule CCCc1ccc(S(=O)(=O)N2CCCC2C(=O)NO)cc1 (stereo not shown) was 90.5

// remaining activity at 0.05 µM lookup, molecule = CCCc1ccc(S(=O)(=O)N2CCCCC2C(=O)NO)cc1 (stereo not shown) , result: 57.7

Per the records, this molecule ( CC(C)C(NS(=O)(=O)c1ccc(C(C)(C)C)cc1)C(=O)NO (stereo not shown) ) has remaining activity at 0.05 µM equal to 99.9
